All figures here come from patent US5817826A.

molecular target: UniProtKB P47712; assay: Cytosolic PLA2 inhibition activity (sonicated liposomes with 1-palmitoyl-2-[14C]arachidonyl-sn-glycero-3-phosphocholine); format: biochemical; conditions: 2 μM radiolabeled phosphatidylcholine liposomes, 1 mM CaCl2, pH 7.4
Sequence (P47712 whole entry): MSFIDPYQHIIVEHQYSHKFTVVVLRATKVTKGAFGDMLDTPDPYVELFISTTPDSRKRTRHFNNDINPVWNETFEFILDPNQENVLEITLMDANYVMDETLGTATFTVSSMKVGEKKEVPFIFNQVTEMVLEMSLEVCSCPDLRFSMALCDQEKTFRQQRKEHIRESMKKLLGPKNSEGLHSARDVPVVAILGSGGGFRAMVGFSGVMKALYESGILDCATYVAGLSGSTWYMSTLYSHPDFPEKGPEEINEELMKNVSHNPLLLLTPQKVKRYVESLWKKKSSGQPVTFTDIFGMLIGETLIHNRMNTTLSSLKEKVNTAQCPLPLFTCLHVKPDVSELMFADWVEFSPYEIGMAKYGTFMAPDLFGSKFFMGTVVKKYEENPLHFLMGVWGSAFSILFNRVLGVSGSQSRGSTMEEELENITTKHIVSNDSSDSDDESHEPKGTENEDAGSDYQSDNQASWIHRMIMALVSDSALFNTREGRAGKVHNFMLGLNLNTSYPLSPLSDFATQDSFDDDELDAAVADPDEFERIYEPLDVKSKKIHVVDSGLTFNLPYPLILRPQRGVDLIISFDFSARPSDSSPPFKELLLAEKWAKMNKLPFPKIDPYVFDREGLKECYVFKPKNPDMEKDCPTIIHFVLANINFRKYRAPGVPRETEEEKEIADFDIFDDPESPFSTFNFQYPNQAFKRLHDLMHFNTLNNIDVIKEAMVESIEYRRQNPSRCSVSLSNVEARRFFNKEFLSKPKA
Experimental endpoint: IC50 (µM)

INSERT INTO results (compound, relation_qualifier, recorded_value) VALUES
  ('CC(C)=CCC/C(C)=C/CN1C(=O)O[C@@H](c2ccccc2)[C@@H]1c1ccccc1 [Compound 0288]', '=', 2),
  ('O=c1oc(-c2ccccc2)c(-c2ccccc2)n1Cc1ccccn1 [Compound 0091]', '=', 105),
  ('O=c1oc(-c2ccccc2)c(-c2ccccc2)n1Cc1ccccc1 [Compound 0001]', '=', 6),
  ('CC(C)=CCC/C(C)=C/CC/C(C)=C/Cn1c(-c2ccccc2)c(-c2ccccc2)oc1=O [Compound 0069]', '=', 153),
  ('C#CCn1c(-c2ccccc2)c(-c2ccccc2)oc1=O [Compound 0062, 3-(2-propynyl)-4,5-diphenyl-oxazol-2-one]', '=', 50),
  ('O=c1oc(-c2ccccc2)c(-c2ccccc2)n1S(=O)(=O)c1ccc2ccccc2c1 [Compound 0067]', '>', 50),
  ('O=C(O)c1ccc(-c2oc(=O)n(Cc3ccccc3)c2-c2ccc(C(=O)O)cc2)cc1 [Compound 0054]', '=', 124),
  ('O=c1oc(-c2ccccc2)c(-c2ccccc2)n1COCc1ccccc1 [Compound 0099]', '=', 42),
  ('CC(C)=CCC/C(C)=C/CN1C(=O)O[C@H](c2ccccc2)[C@@H]1c1ccccc1 [Compound 0169]', '=', 85),
  ('CC(C)=CCC/C(C)=C/CN1C(=O)O[C@@H](c2cccs2)[C@@H]1c1ccccc1 [Compound 0325]', '=', 8.7);
